Cited source: ChEMBL document CHEMBL1140342

Record form. Attribute: pIC50. Fill in for each entry.
- Test system: HT-29
- assay protocol: In vitro inhibitory activity against human colon carcinoma HT-29 cell line
- Format: functional, cell-based
pIC50: −log10 of the molar value.

Consider the worked cases shown below.
C[C@@]1(n2cnc3c(N)ncnc32)O[C@H](CO)[C@@H](O)C1O (single isomer, unassigned)
< 4.00
C[C@@]1(O)[C@H](O)[C@@H](CO)O[C@H]1n1cnc2c(N)ncnc21
< 4.00
CNc1ncnc2c1ncn2C1O[C@H](CO)[C@@](C)(O)C1O (single isomer, unassigned)
4.13
Nc1nc(Cl)nc2c1ncn2[C@@H]1O[C@H](CO)[C@@H](O)C1O (single isomer, unassigned)
4.07
C[C@]1(O)C(O)C(n2cnc3c(N)nc(Cl)nc32)O[C@@H]1CO (single isomer, unassigned)
< 4.00
CNc1ncnc2c1ncn2[C@@H]1O[C@H](CO)[C@@H](O)C1O (single isomer, unassigned)
< 4.00
CNc1ncnc2c1ncn2C1O[C@H](CO)[C@@H](O)[C@@]1(C)O (some centres not stated)
< 4.00
C[C@]1(O)C(n2cnc3c(N)nc(Cl)nc32)O[C@H](CO)[C@H]1O (some centres not stated)
< 4.00
C[C@]1(O)C(n2cnc3c(NC4CC4)ncnc32)O[C@H](CO)[C@H]1O (some centres not stated)
< 4.00
OC[C@H]1O[C@@H](n2cnc3c(NC4CC4)ncnc32)C(O)[C@@H]1O (single isomer, unassigned)
< 4.00

Dear reader, for each entry below, please note its pIC50.
1. C[C@]1(O)C(O)[C@H](n2cnc3c(N)ncnc32)O[C@@H]1CO (single isomer, unassigned)
2. C[C@]1(O)C(O)C(n2cnc3c(NC4CC4)ncnc32)O[C@@H]1CO (single isomer, unassigned)

A)
1. 4.63
2. < 4.00
